Sequence of the target: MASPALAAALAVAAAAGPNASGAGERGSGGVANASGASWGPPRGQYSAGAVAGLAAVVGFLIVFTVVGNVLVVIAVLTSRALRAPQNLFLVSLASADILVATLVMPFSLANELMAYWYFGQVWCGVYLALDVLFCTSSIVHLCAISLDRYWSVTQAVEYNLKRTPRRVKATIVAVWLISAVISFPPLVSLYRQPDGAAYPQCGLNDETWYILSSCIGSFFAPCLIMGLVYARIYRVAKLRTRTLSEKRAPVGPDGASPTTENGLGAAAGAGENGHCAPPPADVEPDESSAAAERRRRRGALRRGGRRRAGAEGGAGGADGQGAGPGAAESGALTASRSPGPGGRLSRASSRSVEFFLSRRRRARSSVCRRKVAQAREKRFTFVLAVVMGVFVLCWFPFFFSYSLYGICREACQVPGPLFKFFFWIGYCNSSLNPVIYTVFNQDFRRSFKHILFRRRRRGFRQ
pKi: −log10 of the molar value.
Let's look at some pKi data for the protein given by its sequence that I collected from the literature.
Tick yes (1) if pKi is 7 or greater. Tick no (0) if pKi is less than 7.

Say whether CCCN1CCOC2c3cc(C(N)=O)ccc3CCC21 (stereo unspecified) shows pKi of 7 or more. no (0)

Note, next up: `N[C@H](CS(=O)(=O)O)C(=O)O` no (0)

Note, next up: COc1ccccc1N1CCN(CCC2C(=O)c3ccccc3C(C)(C)C2=O)CC1 (stereo unspecified) yes (1)

Note, next up: NC(CSSCC(N)C(=O)O)C(=O)O (stereo unspecified) no (0)

Note, next up: NC(CS(=O)O)C(=O)O (stereo unspecified) no (0)

Note, next up: `C[C@@H](NC(=O)c1ccco1)C(=O)N1CCN(CCCOc2ccc(C(=O)C3CC3)cc2)CC1` no (0)

Note, next up: CN1CCC2(CCN3CCc4c(oc5ccccc45)C3C2)N(C)C1=O (stereo unspecified) yes (1)

Note, next up: `C1COC(NC(C2CC2)C2CC2)=N1` no (0)

Note, next up: `CN(C)CCON=C(C=Cc1ccc(O)cc1)c1ccccc1F` no (0)

Note, next up: `C=CCN1CCc2nc(N)sc2CC1` no (0)
